tested on: CEM cells HIV-1 protection, formazan growth assay; assay: NCI AIDS Antiviral Assay;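 active = compounds giving half or more protection of infected cells from virus-caused growth loss, again on retest; inactive = the rest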
# valid calls are 1 = active, -1 = inactive; nothing else

- molecule: "O=C(O)CC(c1ccccc1)C(CC(=O)O)c1ccccc1 (stereo not given)"
  class.label: -1

# fetch the recorded call for COc1ccc(-c2coc3cc(OC)cc(O)c3c2=O)cc1 here
-1

# fetch the recorded call for Cc1c2n(c3ccccc13)CC1CON(C)C21 (stereo not given) here
-1

# fetch the recorded call for CC1=CN(c2ccccc2)S2=C1c1sc3c(c1N2c1ccc(Br)cc1)CCCC3 (stereo not given) here
-1

# fetch the recorded call for NCC1(N2CCOCC2)C2CCCC21CO (stereo not given) here
-1

# fetch the recorded call for S=C1NCCNC(=S)SSC(=S)SS1 here
-1

---

tested on: CEM cells HIV-1 protection, formazan growth assay; experiment: NCI AIDS Antiviral Assay; details: measured here: growth of uninfected CEM cells
IC50 reference
Your answer should be a plain number; it is taken to be in µM.

- compound: "Cc1ccc(NC(=O)CSc2nnc(-c3ccc(N=Cc4ccc(Cl)cc4)cc3)o2)cc1"
  IC50 [µM]: 145
- compound: "O=C(Nc1nc(-c2ccccc2)cs1)OCC(Cl)(Cl)Cl"
  IC50 [µM]: 4.47
- compound: "Cc1cc(NC(=O)NC/C(Cl)=C/Cl)c2ccccc2n1"
  IC50 [µM]: 29.5
- compound: "O=C1/C(=C/c2ccc3c(c2)OCO3)Sc2scc(-c3ccc(O)c(O)c3)[n+]21"
  IC50 [µM]: 1.1
- compound: "C(=C\\c1ccnc2ccccc12)/c1cccnc1"
  IC50 [µM]: 42.7

// switching to the query compound
Data point: CN1CN(c2ccccc2)C2(CCN(CC(C)(c3ccc(F)cc3)C3OCCCO3)CC2)C1=O (stereo unspecified) ; IC50 = 107

---

test system: CEM cells HIV-1 protection, formazan growth assay; assay: NCI AIDS Antiviral Assay;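 active = compounds giving half or more protection of infected cells from virus-caused growth loss, again on retest; inactive = the rest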
# valid calls are active, inactive; nothing else

- compound: "C=CCC(CCC(C)=O)(C(=O)OCC)C(=O)OCC"
  class.label: "inactive"
- compound: "O=C1/C(=C\\c2ccccc2O)Cc2ccccc21"
  class.label: "inactive"
- compound: "COc1ccc(Nc2c3sc4cc(OC)ccc4nc-3c3ccccc3c2=O)cc1"
  class.label: "inactive"
- compound: "CC(=O)[CH-]C(C)=O.CC(=O)[CH-]C(C)=O.[CH2-]CCC.[CH2-]CCC.[Sn+4]"
  class.label: "inactive"

# fetch the recorded call for CCCCCCCCCCCCCC(=O)OCC(CCS(=O)(=O)O[C@H]1CC[C@@]2(C)C(=CC[C@@H]3C2CC[C@]2(C)C(=O)CCC32)C1)OC(=O)CCCCCCCCCCCCC (some centres undefined) here
active

# fetch the recorded call for CC12C(=O)NC(c3ccncc3)(c3ccccc31)C1C(=O)N(c3ccccc3)C(=O)C12 (centres undefined) here
inactive

# fetch the recorded call for NC1=NS(=O)(=O)Nc2nonc21 here
inactive

# fetch the recorded call for CC(=O)NC(CSSCC(NC(C)=O)C(=O)O)C(=O)O (centres undefined) here
inactive

---

test system: CEM cells HIV-1 protection, formazan growth assay; test: NCI AIDS Antiviral Assay; details: measured here: growth of uninfected CEM cells
measure.name: pIC50
In textbook form, pIC50 equals minus log to base ten of the concentration in mol/L.

- molecule: "CC(=O)Nc1ccc(C=Nc2ccc(SSc3ccc(N=Cc4ccc(NC(C)=O)cc4)cc3)cc2)cc1"
  test.result: 4.63
- molecule: "O=C(O)c1ccc(Nc2cnc3ccc(C(F)(F)F)cc3n2)cc1"
  test.result: 4.95
- molecule: "C/C=C/C=Nc1c(C#N)c2n(c1C(=O)Nc1ccc(S(N)(=O)=O)cc1)CCC2"
  test.result: 4.96
- molecule: "Clc1ccc(C2NN=C3c4ccccc4OCC32)cc1 (stereo unspecified)"
  test.result: 5.37

// switching to the query molecule
Observed pIC50, CEM cells HIV-1 protection, formazan growth assay, Cc1ccc(/C(O)=C/c2nc3ccccc3oc2=O)cc1 : 4.26
